- System: EHV-4 405/76 reference strain
- test-name: microbe, parasite or virus in culture
- particulars: Equid alphaherpesvirus 4, read-out: RTCA EC50 (µg/mL ± S.D)
Structures can show the parent of a compound that is named as a salt.
Exam item: assign criterion met to entries whose EC50 is below 5 µg/mL and criterion not met to entries at or above 5 µg/mL. Note that a value of exactly 5 µg/mL receives criterion not met.

Query :: Say whether its EC50 is strictly beneath 5 µg/mL. Entry: CC(C)[C@H](N)C(=O)OCC(CO)OCn1cnc2c(=O)nc(N)[nH]c21 (stereo partly shown) [Valganciclovir hydrochloride]
Result :: criterion met

Query :: Say whether its EC50 is strictly beneath 5 µg/mL. Entry: Nc1ccn(C[C@@H](CO)OCP(=O)(O)O)c(=O)n1 [Cidofovir]
Result :: criterion met

Query :: Say whether its EC50 is strictly beneath 5 µg/mL. Entry: Nc1nc(O)c2ncn(COC(CO)CO)c2n1 [Ganciclovir]
Result :: criterion met

Query :: Say whether its EC50 is strictly beneath 5 µg/mL. Entry: O=c1[nH]c(=O)n([C@H]2C[C@H](O)[C@@H](CO)O2)cc1I [Idoxuridine]
Result :: criterion not met

Query :: Say whether its EC50 is strictly beneath 5 µg/mL. Entry: Cc1nc(N(C)C(=O)Cc2ccc(-c3ccccn3)cc2)sc1S(N)(=O)=O [BAY 57-1293, pritelivir]
Result :: criterion not met

Query :: Say whether its EC50 is strictly beneath 5 µg/mL. Entry: Nc1ncn([C@H]2C[C@H](O)[C@@H](CO)O2)c(=O)n1 [Decitabine]
Result :: criterion met

Next:
Query :: Say whether its EC50 is strictly beneath 5 µg/mL. Entry: Nc1ncnc2c1ncn2[C@@H]1O[C@H](CO)[C@@H](O)[C@@H]1O [Vidarabine]
Result :: criterion met

----------
- Test system: EHV-4 405/76 reference strain
- test-name: microbe, parasite or virus in culture
- particulars: Equid alphaherpesvirus 4, read-out: RTCA EC50 (µM ± S.D)
Counter-ions that a name gives are not always drawn.
measured-metric: log10 EC50 (log10 of the value in µM)
Scale: log10; quantity: EC50; unit before log: µM

Entry CC(C)[C@H](N)C(=O)OCC(CO)OCn1cnc2c(=O)nc(N)[nH]c21 (some centres unmarked) [Valganciclovir hydrochloride] — recorded log10 EC50 = 0.98

----------
- System: EHV-4 405/76 reference strain
- test-name: microbe, parasite or virus in culture
- particulars: Equid alphaherpesvirus 4, read-out: RTCA EC50 (µM ± S.D)
measured-metric: EC50

Here is how some molecules turned out for EC50.
Entry Nc1ccn(C[C@@H](CO)OCP(=O)(O)O)c(=O)n1 — recorded EC50 = 12.6 µM

Entry O=c1[nH]c(=O)n([C@H]2C[C@H](O)[C@@H](CO)O2)cc1I — recorded EC50 = 33.8 µM

Please look at the following molecule next.
Entry Cc1nc(N(C)C(=O)Cc2ccc(-c3ccccn3)cc2)sc1S(N)(=O)=O — recorded EC50 = 17.8 µM

----------
Known AUCn of a selection of compounds
- Tested on: EHV-4 405/76 reference strain
- test-name: RTCA
- Assay type: cell-based, Equid herpesvirus 4
- particulars: 0.4 µM; area under normalized Cell Index curves, 0-120 hpi; EHV-4-infected E. Derm cells
Reply with just the number.

Here is how some compounds turned out for AUCn.
Entry Nc1ncn([C@H]2C[C@H](O)[C@@H](CO)O2)c(=O)n1 [Decitabine] — recorded AUCn = 73.51

Entry Nc1nc2c(ncn2CCC(CO)CO)c(=O)[nH]1 [Penciclovir] — recorded AUCn = 36.54

Entry CCCCCOC(=O)Nc1nc(=O)n([C@@H]2O[C@H](C)[C@@H](O)[C@H]2O)cc1F [Capecitabine] — recorded AUCn = 35.92

Entry Cc1ccc2c(=O)c3cccc(CC(=O)O)c3oc2c1C [DMXAA] — recorded AUCn = 36.50

Please look at the following compound next.
Entry CC(=O)OCC(CCn1cnc2cnc(N)nc21)COC(C)=O [Famciclovir] — recorded AUCn = 39.12

----------
- Test system: EHV-4 405/76 reference strain
- test-name: RTCA
- Assay type: cell-based, Equid herpesvirus 4
- particulars: 0.4 µM; area under normalized Cell Index curves, 0-120 hpi; EHV-4-infected E. Derm cells
Where a name gives a salt, the structure may show the parent alone.
Exam item: assign criterion met to entries whose AUCn is below 30 and criterion not met to entries at or above 30. Note that a value of exactly 30 receives criterion not met.

Please review the following examples before continuing.
Query :: Say whether its AUCn is strictly beneath 30. Entry: O=C(N/N=C/c1ccc(O)c(O)c1)c1cc2ccccc2cc1O [Dynasore]
Result :: criterion met

Query :: Say whether its AUCn is strictly beneath 30. Entry: O=c1[nH]c(=O)n([C@H]2C[C@H](O)[C@@H](CO)O2)cc1/C=C/Br [Brivudine]
Result :: criterion met

Query :: Say whether its AUCn is strictly beneath 30. Entry: C[C@@]1(CO)[C@H](O)CC[C@@]2(C)[C@H]1CC[C@H]1C[C@@H]3C[C@@]12CC[C@]3(O)CO [Aphidicolin]
Result :: criterion met

***
Query :: Say whether its AUCn is strictly beneath 30. Entry: [H]/N=C(\N/C(=N/[H])Nc1ccc(Cl)cc1)NC(C)C [Proguanil hydrochloride]
Result :: criterion not met

Query :: Say whether its AUCn is strictly beneath 30. Entry: Nc1ccn([C@@H]2O[C@H](CO)[C@@H](O)[C@@H]2O)c(=O)n1 [Cytarabine]
Result :: criterion met

Query :: Say whether its AUCn is strictly beneath 30. Entry: COc1nc(N)nc2c1ncn2[C@@H]1O[C@H](CO)[C@@H](O)[C@@H]1O [Nelarabine]
Result :: criterion not met

----------
Known Si (CC50/EC50, RTCA) of a selection of molecules
- System: EHV-4 405/76 reference strain
- particulars: ratio of CC50 to EC50 obtained by RTCA
Structures can show the parent of a compound that is named as a salt.

Here is how some molecules turned out for Si (CC50/EC50, RTCA).
Entry Nc1nc(O)c2ncn(COC(CO)CO)c2n1 — recorded Si (CC50/EC50, RTCA) = >12.35

Entry O=c1[nH]c(=O)n([C@H]2C[C@H](O)[C@@H](CO)O2)cc1I — recorded Si (CC50/EC50, RTCA) = >1.48

Entry Cc1nc(N(C)C(=O)Cc2ccc(-c3ccccn3)cc2)sc1S(N)(=O)=O — recorded Si (CC50/EC50, RTCA) = >2.81

Entry CC(C)[C@H](N)C(=O)OCC(CO)OCn1cnc2c(=O)nc(N)[nH]c21 (some centres unmarked) [Valganciclovir hydrochloride] — recorded Si (CC50/EC50, RTCA) = >5.24

Entry Nc1ccn(C[C@@H](CO)OCP(=O)(O)O)c(=O)n1 — recorded Si (CC50/EC50, RTCA) = >3.98

Entry C[C@@]1(CO)[C@H](O)CC[C@@]2(C)[C@H]1CC[C@H]1C[C@@H]3C[C@@]12CC[C@]3(O)CO — recorded Si (CC50/EC50, RTCA) = >23.15

Entry Nc1ncnc2c1ncn2[C@@H]1O[C@H](CO)[C@@H](O)[C@@H]1O — recorded Si (CC50/EC50, RTCA) = >2.94

Please look at the following molecule next.
Entry Nc1ncn([C@H]2C[C@H](O)[C@@H](CO)O2)c(=O)n1 — recorded Si (CC50/EC50, RTCA) = >43.10

----------
- Tested on: EHV-4 405/76 reference strain
- test-name: microbe, parasite or virus in culture
- particulars: Equid alphaherpesvirus 4, read-out: RTCA EC50 (µM ± S.D)
Known EC50 of a selection of molecules
Give the quantity in µM, number only.

Here is how some molecules turned out for EC50.
Entry C[C@@]1(CO)[C@H](O)CC[C@@]2(C)[C@H]1CC[C@H]1C[C@@H]3C[C@@]12CC[C@]3(O)CO — recorded EC50 = 2.16

Entry Nc1ncn([C@H]2C[C@H](O)[C@@H](CO)O2)c(=O)n1 — recorded EC50 = 1.16

Entry Nc1nc(O)c2ncn(COC(CO)CO)c2n1 — recorded EC50 = 4.05

Please look at the following molecule next.
Entry Nc1ncnc2c1ncn2[C@@H]1O[C@H](CO)[C@@H](O)[C@@H]1O — recorded EC50 = 17

----------
- Tested on: EHV-4 405/76 reference strain
- test-name: RTCA
- Assay type: cell-based, Equid herpesvirus 4
- particulars: 0.4 µM; area under normalized Cell Index curves, 0-120 hpi; EHV-4-infected E. Derm cells
measured-metric: AUCn
Reply with just the number.

Here is how some compounds turned out for AUCn.
Entry Cc1cn([C@@H]2C[C@@H](O)[C@H](CO)O2)c(=O)[nH]c1=O [Telbivudine] — recorded AUCn = 30.51

Entry NC(=O)c1nc(F)c[nH]c1=O [Favipiravir] — recorded AUCn = 30.35

Entry CC(C)n1c(/C=C/C(O)CC(O)CC(=O)O)c(-c2ccc(F)cc2)c2ccccc21 (stereo not drawn) [Fluvastatin] — recorded AUCn = 33.08

Entry Nc1nc2nc[nH]c2c(=S)[nH]1 [6-thioguanine] — recorded AUCn = 37.89

Entry Nc1nc(=O)n([C@@H]2CS[C@H](CO)O2)cc1F [Emtricitabine] — recorded AUCn = 36.81

Entry CC(C)(C)C(=O)OCOP(=O)(COCCn1cnc2c(N)ncnc21)OCOC(=O)C(C)(C)C [Adefovir dipivoxil] — recorded AUCn = 99.92

Entry Nc1nc(O)c2ncn(COC(CO)CO)c2n1 [Ganciclovir] — recorded AUCn = 57.9

Entry Sc1ncnc2nc[nH]c12 [6-mercaptopurine] — recorded AUCn = 39.53

Entry CCOC(=O)c1c(CSc2ccccc2)n(C)c2cc(Br)c(O)c(CN(C)C)c12 [Arbidol] — recorded AUCn = 31.88

Entry O=c1c(-c2ccc(O)cc2)coc2cc(O)cc(O)c12 [Genistein] — recorded AUCn = 11.7

***
Entry CCC(C)(C)C(=O)O[C@H]1C[C@@H](C)C=C2C=C[C@H](C)[C@H](CC[C@@H]3C[C@@H](O)CC(=O)O3)[C@H]21 [Simvastatin] — recorded AUCn = 34.65

Entry C[C@@]1(O)[C@H](O)[C@@H](CO)O[C@H]1n1ccc(N)nc1=O [2′-C-methylcytidine] — recorded AUCn = 37.52
